In this section, each of the compounds is paired with its reported MIC.
tested on: Escherichia coli; test: Minimum inhibitory concentration of compound against Escherichia coli delta 120; format: functional
Reported Metric: MIC (µg/mL)

Cc1ccc(S(=O)(=O)N2N=Cc3cc(Cl)ccc3B2O)cc1 : 25
CCS(=O)(=O)N1N=Cc2sc(Br)cc2B1O : 12.5
Cc1ccc(S(=O)(=O)N2N=Cc3oc(Br)cc3B2O)cc1 : 12.5
Cc1ccc(S(=O)(=O)N2N=Cc3sc(Br)cc3B2O)c(Cl)c1 : 50
O=S(=O)(c1ccccc1)N1N=Cc2ccc(O)cc2B1O : 50
CC(=O)Nc1ccc(S(=O)(=O)N2N=Cc3cc(C)ccc3B2O)c(Cl)c1 : 25
O=[N+]([O-])c1ccc(S(=O)(=O)N2N=Cc3cc(Br)ccc3B2O)cc1 : 6.25
Cc1ccc(S(=O)(=O)N2N=Cc3sc(C)cc3B2O)c(Cl)c1 : 50
CCCS(=O)(=O)N1N=Cc2sc(C)cc2B1O : 1.56
Cc1ccc(S(=O)(=O)N2N=Cc3ccc(Br)cc3B2O)cc1 : 50
CC(C)CS(=O)(=O)N1N=Cc2sc(Br)cc2B1O : 12.5
CCCS(=O)(=O)N1N=Cc2cc(CC)sc2B1O : 2.5
Cc1cc2c(s1)B(O)N(S(=O)(=O)CC(C)C)N=C2 : 6.25
Cc1ccc2c(c1)C=NN(S(=O)(=O)c1ccc(N)cc1)B2O : 6.25
CCc1cc2c(s1)B(O)N(S(=O)(=O)c1ccccc1Cl)N=C2 : 10
Cc1ccc(S(=O)(=O)N2N=Cc3sc(Br)cc3B2O)cc1 : 6.25
Cc1ccccc1S(=O)(=O)N1N=Cc2sc(Br)cc2B1O : 25
CC(=O)Nc1ccc(S(=O)(=O)N2N=Cc3sc(Br)cc3B2O)cc1 : 25
Nc1ccc(S(=O)(=O)N2N=Cc3c(F)cccc3B2O)cc1 : 25
CCCS(=O)(=O)N1N=Cc2cc(C)ccc2B1O : 6.25

====

system: Proteus mirabilis; experiment: Minimum inhibitory concentration against Proteus mirabilis delta 89; format: functional
In this section, each of the molecules is paired with its reported log10(MIC).
Reported Metric: log10(MIC) (log10 of the value in µg/mL)

Cc1ccc(S(=O)(=O)N2N=Cc3cc(C)ccc3B2O)cc1 : 0.49
Cc1ccc(S(=O)(=O)N2N=Cc3cc4c(cc3B2O)C=NN(S(=O)(=O)c2ccc(C)cc2)B4O)cc1 : 1.70
Cc1ccc2c(c1)C=NN(S(=O)(=O)c1ccc(N)cc1)B2O : -0.41
Nc1ccc(S(=O)(=O)N2N=Cc3c(F)cccc3B2O)cc1 : 0.80
CC(=O)Nc1ccc(S(=O)(=O)N2N=Cc3sc(Br)cc3B2O)cc1 : 0.49
Cc1ccc(S(=O)(=O)N2N=Cc3oc(C)cc3B2O)cc1 : 0.49
O=S(=O)(c1cc(Cl)c(Cl)cc1Cl)N1N=Cc2oc(Br)cc2B1O : 0.80
CC(=O)Nc1ccc(S(=O)(=O)N2N=Cc3cc(Br)ccc3B2O)c(Cl)c1 : 0.19
Cc1ccccc1S(=O)(=O)N1N=Cc2sc(Br)cc2B1O : 0.19
O=S(=O)(c1cc(Cl)c(Cl)cc1Cl)N1N=Cc2c(F)cccc2B1O : 1.40

====

system: Proteus mirabilis; assay: Minimum inhibitory concentration against Proteus mirabilis delta 89; type: functional
In this section, each of the compounds is paired with its reported MIC.
Reported Metric: MIC (µg/mL)

Cc1ccc(S(=O)(=O)N2N=Cc3cc4c(cc3B2O)-c2ccccc2C4)cc1 : 50
Cc1ccc(S(=O)(=O)N2N=Cc3c(F)cccc3B2O)cc1 : 3.12
CN(C)S(=O)(=O)N1N=Cc2ccccc2B1O : 50
Cc1ccc(S(=O)(=O)N2N=Cc3cc(F)ccc3B2O)cc1 : 6.25
CCc1cc2c(s1)B(O)N(S(=O)(=O)c1ccccc1Cl)N=C2 : 1.56
